Molecular target: T1, second WW domain of human YAP2 (YAP-WW2) (human, UniProt P46937-2 228-271)
T1 construct: also called hYAP-WW2; not shown: GST, N-terminal, cleaved; His tag, N-terminal, cleaved
T1 sequence (P46937 228-271): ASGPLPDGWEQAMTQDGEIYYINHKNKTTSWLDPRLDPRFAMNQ
Experiment: other fluorescence titration; tryptophan fluorescence of the WW domain (20 uM), excitation 298 nm, centre of spectral mass against peptide concentration, one to one model; 20 mM sodium phosphate pH 7.0, 25 °C
Conditions: both partners purified
observation.type: Kd (µM)
All answers are understood in µM, so give the number only.

Give the measured Kd of SDPQIPPPYVEP [HTLV1 Late domain peptide] .
260
